system: P388 leukemia ip, CD2F1 mice, survival T/C; assay: NCI In Vivo Anticancer Drug Screen. Data for tumor model P388 Leukemia (intraperitoneal) in CD2F1 (CDF1) mice; conditions: endpoint: median survival time; dose: 240.0 mg/kg/injection; schedule: Q01DX005 (ip); vehicle: Klucel (hydroxypropylcellulose) (HPC); higher = longer survival
Toxic doses and inconclusive results are not listed.
endpoint_name: T/C

* CCc1nc2c(Br)c3oc(CC)nc3c(C)c2o1 | 91 % of control
* COC1(OC)C(c2ccc([N+](=O)[O-])cc2)C(C#N)(C#N)C1(OC)OC (centres undefined) | 99 % of control

Tell me T/C reported for "Cc1n[nH]c(=O)n2c1nc1ccccc12" 92 % of control

Tell me T/C reported for C=C1C(=O)OC2C(OC(=O)CC(C)C)CCCC12 (centres undefined) 92 % of control

Source listed as PubChem BioAssay AID330.
